- ASSAY: clinical
- Assay type: in vivo, human
- MEASUREMENT CONDITIONS: human, in vivo, 2 mg
- Description: This study was designed to evaluate the safety and pharmacokinetic (“PK”) interactions between Compound (1C) and alcohol in healthy subjects. […] The study was designed as a single-site, randomized, single-dose, double-blinded, placebo-controlled crossover study, and 46 subjects completed treatment as part of the study. […] AUCt Area under the plasma concentration-time curve from hour 0 to the last measurable plasma concentration, calculated by the linear trapezoidal method. […]

COMPOUND: O=C(O)c1nc2ccccc2n([C@H]2C[C@H]3CCC[C@@H](C2)N3C2CC3CCCC(C3)C2)c1=O (stereo partly shown) [Compound (1C)]
Tmax / h: 1.7
